assay: Selectivity index, ratio of IC50 for cytotoxicity against mouse RAW264.7 cells to IC50 for antitrypanosomal activity against trypomastigote stage of Trypanosoma cruzi Dm28c; type: toxicity, cell-based; details: read-out: Ratio IC50
Kindly state selectivity ratio for each of the entries shown.

{"columns": ["molecule", "assay.value"],
 "data": [
  ["O=c1oc2c(O)c(O)ccc2cc1-c1ccccc1O", 1.73]
]}

input: Which selectivity ratio is reported for this molecule? CC1CS(=O)(=O)CCN1/N=C/c1ccc([N+](=O)[O-])o1 (configuration not stated) [NIFURTIMOX]
output: 26.3

###

assay: Selectivity index, ratio of IC50 for cytotoxicity against mouse RAW264.7 cells to IC50 for antitrypanosomal activity against epimastigote stage of Trypanosoma cruzi Dm28c; format: toxicity, cell-based; details: read-out: Ratio IC50
So I've got a bunch of compounds here, and I need their selectivity ratio values.
Answers are plain numbers.

Solved entries:
{"columns": ["compound", "assay.value"],
 "data": [
  ["O=c1oc2c(O)c(O)ccc2cc1-c1ccc(O)c(O)c1", 2.07],
  ["CC1CS(=O)(=O)CCN1/N=C/c1ccc([N+](=O)[O-])o1 (configuration not stated) [NIFURTIMOX]", 15.1],
  ["O=c1oc2c(O)c(O)ccc2cc1-c1ccccc1", 2.93],
  ["O=c1oc2c(O)c(O)ccc2cc1-c1cccc(O)c1", 13.9],
  ["O=c1oc2c(O)c(O)ccc2cc1-c1ccccc1O", 52.6]
]}

Next compound, selectivity ratio to be filled in.
input: Quick one: selectivity ratio for O=c1oc2c(O)cccc2cc1-c1ccc(O)c(O)c1 ?
output: 1.37
